Please provide measured EC50 for the entries that follow.
# system-tested: human orexin type 2 receptor (hOX2R) (Homo sapiens)
# Construct: the Orexin receptor cDNA was inserted into pcDNA3.1(+) plasmid vector; expressed in transfected cells
# assay-info: Orexin type 2 receptor agonist activity, intracellular Ca2+ (FLIPR TETRA) in CHO cells
# Type: cell-based
# assay-context: CHO cells expressing hOX2R; Ca2+ fluorescence area; 100% = 10 nM human orexin A; read-out: hOx2 pEC50 (converted)

Using known records, supply EC50 for O=C1CCOc2ccccc2-c2cccc(c2F)C[C@H]2[C@@H](NS(=O)(=O)C3(F)CC3)CCCN12 [Example 36] 1 to 10 nM

Using known records, supply EC50 for CCN1CCOc2ccccc2-c2cccc(c2)C[C@H]2[C@@H](NS(=O)(=O)CF)C3(CC3)CN2C1=O [Example 37] 0.0398 to 1 nM

Using known records, supply EC50 for CC(C)S(=O)(=O)N[C@H]1[C@@H](F)CN2C(=O)N(C)CCOc3ccccc3-c3cccc(c3F)C[C@@H]12 [Example 35] 1 to 10 nM

Using known records, supply EC50 for O=C1CCOc2c(F)cccc2-c2cccc(c2)C[C@H]2[C@@H](NS(=O)(=O)C(F)F)CCCN12 [Example 24] 1 to 10 nM

----------
Please provide measured EC50 for the entries that follow.
# system-tested: human orexin type 2 receptor (hOX2R) (Homo sapiens)
# Construct: the Orexin receptor cDNA was inserted into pcDNA3.1(+) plasmid vector; expressed in transfected cells
# assay-info: Orexin type 2 receptor agonist activity, intracellular Ca2+ (FLIPR TETRA) in CHO cells
# Assay type: cell-based
# assay-context: CHO cells expressing hOX2R; Ca2+ fluorescence area; 100% = 10 nM human orexin A; read-out: hOx2 pEC50 (converted)
# Method: Stable cell line generation. […] Measurement of orexin type 2 receptor agonist activity. […] The agonist activity of the test compound was calculated assuming that the fluorescence value of the well added with only the dilution buffer was 0% and the fluorescence value of the well added with 10 nM human orexin A (Tocris) buffer was 100%. […]

Using known records, supply EC50 for C[C@@H](F)S(=O)(=O)N[C@H]1CCCN2C(=O)CCOc3ccccc3-c3cccc(c3)C[C@@H]12 0.0398 to 1 nM

Using known records, supply EC50 for O=C1N(CC(F)F)CCOc2c(F)cccc2-c2cccc(c2)C[C@H]2[C@@H](NS(=O)(=O)CF)C3(CC3)CN12 1 to 10 nM

Using known records, supply EC50 for CN1CCOc2c(F)cc(F)cc2-c2cccc(c2F)C[C@H]2[C@@H](NS(=O)(=O)CF)C3(CC3)CN2C1=O 1 to 10 nM

Using known records, supply EC50 for CN1CCOc2ccccc2-c2cccc(c2)C[C@H]2[C@@H](NS(=O)(=O)C(C)(C)F)C3(CC3)CN2C1=O 1 to 10 nM

Using known records, supply EC50 for CN1CCOc2c(F)cccc2-c2cccc(c2F)C[C@H]2[C@@H](NS(=O)(=O)CF)C3(CC3)CN2C1=O 0.0398 to 1 nM

Using known records, supply EC50 for O=C1CCOc2c(F)cccc2-c2cccc(c2)C[C@H]2[C@@H](NS(=O)(=O)C3(F)CC3)[C@@H](F)CCN12 0.0398 to 1 nM

Using known records, supply EC50 for CCS(=O)(=O)N[C@H]1[C@@H](F)CN2C(=O)N(C)CCOc3ccccc3-c3cccc(c3)C[C@@H]12 1 to 10 nM

Using known records, supply EC50 for O=C1CCOc2c(F)cc(F)cc2-c2cccc(c2F)C[C@H]2[C@@H](NS(=O)(=O)C3(F)CC3)CCCN12 0.0398 to 1 nM

Using known records, supply EC50 for CCS(=O)(=O)N[C@H]1[C@@H](F)CN2C(=O)N(C)CCOc3ccccc3-c3cccc(c3F)C[C@@H]12 1 to 10 nM

Using known records, supply EC50 for CN1CCOc2c(F)cccc2-c2cccc(c2F)C[C@H]2[C@@H](NS(=O)(=O)CF)[C@@H](F)CN2C1=O 1 to 10 nM

Using known records, supply EC50 for CCS(=O)(=O)N[C@@H]1[C@@H]2Cc3cccc(c3)-c3ccccc3OCCN(C)C(=O)N2CC1(F)F 1 to 10 nM

Using known records, supply EC50 for O=C1CCOc2c(F)cccc2-c2cccc(c2F)C[C@H]2[C@@H](NS(=O)(=O)CF)[C@@H](F)CCN12 0.0398 to 1 nM

Using known records, supply EC50 for O=C1CCOc2c(F)cc(F)cc2-c2cccc(c2)C[C@H]2[C@@H](NS(=O)(=O)C(F)F)CCCN12 1 to 10 nM

Using known records, supply EC50 for CN1CCOc2c(F)cc(F)cc2-c2cccc(c2)C[C@H]2[C@@H](NS(=O)(=O)C(F)F)C3(CC3)CN2C1=O 10 to 100 nM

----------
Please provide measured Wake % time 1 h post dose (increase from vehicle) for the entries that follow.
# Tested on: wild type (WT) colony mates
# assay-info: Wake-promoting efficacy of oral small molecules, piezoelectric sleep/wake monitoring, WT mice
# Assay type: in vivo, mouse
# assay-context: oral dose 10 mg/kg, dosed 5 h after light onset
# number only, unit % dropped from output

Using known records, supply Wake % time 1 h post dose (increase from vehicle) for O=C1CCOc2c(F)cc(F)cc2-c2cccc(c2F)C[C@H]2[C@@H](NS(=O)(=O)CF)[C@@H](F)CCN12 [Example 41] 28.0

Using known records, supply Wake % time 1 h post dose (increase from vehicle) for O=C1CCOc2c(F)cccc2-c2cccc(c2F)C[C@H]2[C@@H](NS(=O)(=O)C3(F)CC3)CCCN12 [Example 48] 34.8

Using known records, supply Wake % time 1 h post dose (increase from vehicle) for O=C1CCOc2c(F)cc(F)cc2-c2cccc(c2F)C[C@H]2[C@@H](NS(=O)(=O)C3(F)CC3)CCCN12 [Example 47] 39.0

Using known records, supply Wake % time 1 h post dose (increase from vehicle) for O=C1CCOc2c(F)cccc2-c2cccc(c2F)C[C@H]2[C@@H](NS(=O)(=O)CF)[C@@H](F)CCN12 [Example 42] 22.8

----------
Please provide measured EC50 for the entries that follow.
# system-tested: human orexin type 2 receptor (hOX2R) (Homo sapiens, UniProt O43614)
# Construct: the Orexin receptor cDNA was inserted into pcDNA3.1(+) plasmid vector; expressed in transfected cells
# Sequence (O43614 1-444): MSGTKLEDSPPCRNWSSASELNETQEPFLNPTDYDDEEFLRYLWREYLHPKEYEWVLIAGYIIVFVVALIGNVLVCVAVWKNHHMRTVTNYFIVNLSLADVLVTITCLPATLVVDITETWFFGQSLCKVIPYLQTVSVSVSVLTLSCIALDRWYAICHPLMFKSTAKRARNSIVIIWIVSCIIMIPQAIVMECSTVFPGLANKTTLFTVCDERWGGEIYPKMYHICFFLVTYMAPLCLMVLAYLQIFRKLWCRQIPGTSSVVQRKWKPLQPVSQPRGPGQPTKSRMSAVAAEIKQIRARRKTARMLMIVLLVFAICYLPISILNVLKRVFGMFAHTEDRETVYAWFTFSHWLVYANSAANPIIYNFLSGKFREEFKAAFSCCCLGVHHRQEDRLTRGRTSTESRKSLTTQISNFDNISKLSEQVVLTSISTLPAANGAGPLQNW
# assay-info: Orexin type 2 receptor agonist activity, intracellular Ca2+ (FLIPR TETRA) in CHO cells
# Type: cell-based
# assay-context: CHO cells expressing hOX2R; Ca2+ fluorescence area; 100% = 10 nM human orexin A; read-out: hOx2 pEC50 (converted)

Using known records, supply EC50 for CN1CCOc2c(F)cccc2-c2cccc(c2)C[C@H]2[C@@H](NS(=O)(=O)CF)C(F)(F)CN2C1=O 1 to 10 nM

Using known records, supply EC50 for CN1CCOc2ccccc2-c2cccc(c2F)C[C@H]2[C@@H](NS(=O)(=O)CF)C3(CC3)CN2C1=O 1 to 10 nM

Using known records, supply EC50 for CN1CCOc2c(F)cccc2-c2cccc(c2)C[C@H]2[C@@H](NS(=O)(=O)CF)C3(CC3)CN2C1=O 10 to 100 nM

Using known records, supply EC50 for CN1CCOc2c(F)cccc2-c2cccc(c2)C[C@H]2[C@@H](NS(=O)(=O)C(F)F)C(F)(F)CN2C1=O 10 to 100 nM

Using known records, supply EC50 for CCS(=O)(=O)N[C@H]1[C@@H](F)CN2C(=O)CCOc3ccccc3-c3cccc(c3F)C[C@@H]12 1 to 10 nM

Using known records, supply EC50 for CN1CCOc2c(F)cccc2-c2cccc(c2)C[C@H]2[C@@H](NS(=O)(=O)CF)[C@@H](F)CN2C1=O 1 to 10 nM

Using known records, supply EC50 for O=C1CCOc2ccccc2-c2cccc(c2)C[C@H]2[C@@H](NS(=O)(=O)C3(F)CC3)CCCN12 0.0398 to 1 nM

Using known records, supply EC50 for O=C1CCOc2c(F)cccc2-c2cccc(c2F)C[C@H]2[C@@H](NS(=O)(=O)C3(F)CC3)CCCN12 0.0398 to 1 nM

Using known records, supply EC50 for CN1CCOc2c(F)cc(F)cc2-c2cccc(c2F)C[C@H]2[C@@H](NS(=O)(=O)C(F)F)C3(CC3)CN2C1=O 1 to 10 nM

Using known records, supply EC50 for O=C1CCOc2ccccc2-c2cccc(c2)C[C@H]2[C@@H](NS(=O)(=O)C3(F)CC3)[C@@H](F)CCN12 1 to 10 nM

Using known records, supply EC50 for CN1CCOc2c(F)cc(F)cc2-c2cccc(c2F)C[C@H]2[C@@H](NS(=O)(=O)C(F)F)[C@@H](F)CN2C1=O 10 to 100 nM

Using known records, supply EC50 for O=C1CCOc2c(F)cc(F)cc2-c2cccc(c2)C[C@H]2[C@@H](NS(=O)(=O)CF)CCCN12 1 to 10 nM

Using known records, supply EC50 for CN1CCOc2ccccc2-c2cccc(c2F)C[C@H]2[C@@H](NS(=O)(=O)CF)CCCN2C1=O 10 to 100 nM

Using known records, supply EC50 for CCS(=O)(=O)N[C@H]1CCCN2C(=O)CCOc3ccccc3-c3cccc(c3F)C[C@@H]12 1 to 10 nM

Using known records, supply EC50 for O=C1CCOc2c(F)cccc2-c2cccc(c2)C[C@H]2[C@@H](NS(=O)(=O)C3(F)CC3)CCCN12 0.0398 to 1 nM
